Test: Apparent half-life of the terminal disposition phase in C57BL/6 mouse brain at 10 mg/kg, po administered as single dose
Format: ADME, organism-based
Settings: read-out: t1/2 lambda z (converted)
measure-name: half-life (days)
# number only, unit days dropped from output

The value of half-life measured for the molecule "CC(C)(O)c1cccc(-c2ccc3nc(-c4ccc(Cl)cc4)cn3c2)c1" turned out to be 8.2

====

Test: Drug level in anaesthetized guinea pig heart administered as single iv dose
Type: ADME, organism-based, Cavia porcellus
Settings: in vivo, read-out: Drug uptake
measure-name: concentration

Sample "CC(C)(O)c1cccc(-c2ccc3nc(-c4ccc(Cl)cc4)cn3c2)c1" ; concentration observed: ≤ 17 µM
